Provenance of the data: the supplement of paper PMC6555819

Test system: RARb:RXRa (NR concentration 270 nM, RXRa partner concentration 90 nM)
protocolSummary: PBM binding z-score (relative to random genomic background probes); higher = stronger binding; sequences stand for … in GC…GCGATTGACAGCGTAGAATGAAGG
Kind request: treat 1 as inclusive, so PBM binding z-score at 1 or higher is YES, anything lower is NO.

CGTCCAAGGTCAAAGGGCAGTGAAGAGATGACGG; YES

Does PBM binding z-score meet or surpass 1 for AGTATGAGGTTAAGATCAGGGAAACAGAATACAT ?
YES

Does PBM binding z-score meet or surpass 1 for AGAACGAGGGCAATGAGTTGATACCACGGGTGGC ?
YES

Does PBM binding z-score meet or surpass 1 for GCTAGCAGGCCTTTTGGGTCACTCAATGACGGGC ?
YES

Does PBM binding z-score meet or surpass 1 for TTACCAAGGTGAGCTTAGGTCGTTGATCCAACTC ?
YES

Does PBM binding z-score meet or surpass 1 for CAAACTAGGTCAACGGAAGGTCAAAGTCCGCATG ?
YES

Does PBM binding z-score meet or surpass 1 for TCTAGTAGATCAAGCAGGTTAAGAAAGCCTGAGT ?
NO

Does PBM binding z-score meet or surpass 1 for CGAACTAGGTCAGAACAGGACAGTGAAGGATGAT ?
YES

Does PBM binding z-score meet or surpass 1 for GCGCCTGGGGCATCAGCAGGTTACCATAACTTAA ?
NO

Does PBM binding z-score meet or surpass 1 for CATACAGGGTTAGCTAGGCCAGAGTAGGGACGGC ?
YES
